Here, each record is paired with measured Spleen weight, per cent of change vs control animals data.
PROTOCOL: Effects of 7-day Ointment Rubbing on Organ Weights
Type: in vivo, male Sprague-Dawley rats
TEST_PARAMETERS: Table 7; 7-day rubbing, 100 mg ointment once daily
METRIC_NAME: Spleen weight, per cent of change vs control animals (per cent)

C[C@@H]1C[C@H]2[C@@H]3CCC4=CC(=O)C=C[C@]4(C)[C@@]3(F)[C@@H](O)C[C@]2(C)[C@@]1(O)C(=O)CO[C@H]1O[C@H](CO)[C@@H](O)[C@H](O)[C@@H]1O = -18.2
C[C@@H]1C[C@H]2[C@@H]3CCC4=CC(=O)C=C[C@]4(C)[C@@]3(F)[C@@H](O)C[C@]2(C)[C@@]1(O)C(=O)CO[C@@H]1O[C@H](CO)[C@@H](O)[C@H](O)[C@H]1O = -56.0
C[C@@H]1C[C@H]2[C@@H]3CCC4=CC(=O)C=C[C@]4(C)[C@@]3(F)[C@@H](O)C[C@]2(C)[C@@]1(O)C(=O)CO[C@H]1O[C@H](CO)[C@H](O)[C@H](O)[C@H]1O = -35.7
C[C@@H]1C[C@H]2[C@@H]3CCC4=CC(=O)C=C[C@]4(C)[C@@]3(F)[C@@H](O)C[C@]2(C)[C@@]1(O)C(=O)CO[C@@H]1O[C@H](CO)[C@H](O)[C@H](O)[C@H]1O = -43.2

* * *

PROTOCOL: Effects of 7-day Ointment Rubbing on Organ Weights
Format: in vivo, male Sprague-Dawley rats
TEST_PARAMETERS: Table 7; 7-day rubbing, 100 mg ointment once daily
Here, each record is paired with measured Body weight, per cent of change on the 8th day vs 1st day data.
METRIC_NAME: Body weight, per cent of change on the 8th day vs 1st day (per cent)

C[C@@H]1C[C@H]2[C@@H]3CCC4=CC(=O)C=C[C@]4(C)[C@@]3(F)[C@@H](O)C[C@]2(C)[C@@]1(O)C(=O)CO[C@@H]1O[C@H](CO)[C@@H](O)[C@H](O)[C@H]1O [Compound 5β, glucosyldexamethasone] = 0.7
C[C@@H]1C[C@H]2[C@@H]3CCC4=CC(=O)C=C[C@]4(C)[C@@]3(F)[C@@H](O)C[C@]2(C)[C@@]1(O)C(=O)CO[C@@H]1O[C@H](CO)[C@H](O)[C@H](O)[C@H]1O [Compound 15β, galactosyldexamethasone] = 4.6
C[C@@H]1C[C@H]2[C@@H]3CCC4=CC(=O)C=C[C@]4(C)[C@@]3(F)[C@@H](O)C[C@]2(C)[C@@]1(O)C(=O)CO[C@H]1O[C@H](CO)[C@H](O)[C@H](O)[C@H]1O [Compound 15α, galactosyldexamethasone] = 8.3
C[C@@H]1C[C@H]2[C@@H]3CCC4=CC(=O)C=C[C@]4(C)[C@@]3(F)[C@@H](O)C[C@]2(C)[C@@]1(O)C(=O)CO[C@H]1O[C@H](CO)[C@@H](O)[C@H](O)[C@@H]1O [Compound 25α, mannosyldexamethasone] = 16.1

* * *

PROTOCOL: Effects of 7-day Ointment Rubbing on Organ Weights
Format: in vivo, male Sprague-Dawley rats
TEST_PARAMETERS: Table 7; 7-day rubbing, 100 mg ointment once daily; normal animal 0.0
METRIC_NAME: Leukocyte count

C[C@@H]1C[C@H]2[C@@H]3CCC4=CC(=O)C=C[C@]4(C)[C@@]3(F)[C@@H](O)C[C@]2(C)[C@@]1(O)C(=O)CO[C@H]1O[C@H](CO)[C@H](O)[C@H](O)[C@H]1O = -22.6
C[C@@H]1C[C@H]2[C@@H]3CCC4=CC(=O)C=C[C@]4(C)[C@@]3(F)[C@@H](O)C[C@]2(C)[C@@]1(O)C(=O)CO[C@@H]1O[C@H](CO)[C@@H](O)[C@H](O)[C@H]1O = -46.6
C[C@@H]1C[C@H]2[C@@H]3CCC4=CC(=O)C=C[C@]4(C)[C@@]3(F)[C@@H](O)C[C@]2(C)[C@@]1(O)C(=O)CO[C@@H]1O[C@H](CO)[C@H](O)[C@H](O)[C@H]1O = -37.0
C[C@@H]1C[C@H]2[C@@H]3CCC4=CC(=O)C=C[C@]4(C)[C@@]3(F)[C@@H](O)C[C@]2(C)[C@@]1(O)C(=O)CO[C@H]1O[C@H](CO)[C@@H](O)[C@H](O)[C@@H]1O = -0.7
